- System: Pseudomonas aeruginosa
- measurement.notes: Susceptibility testing (MIC) Assay 2, broth microdilution
- Type: cell-based
- condition.summary: PAO1, read-out: Pae MIC
Please respond with reported MIC for every item in the list.

C[C@@H]1CN2c3c(cc4c(N5C(=O)OC[C@@H]5c5ccccc5)noc4c3F)CC3(C(=O)NC(=O)NC3=O)[C@H]2[C@H](C)O1; > 200 µM

Give MIC for all compounds that follow.
1. C[C@@H]1CN2c3c(cc4c(N5C(=O)OC[C@@H]5[C@H](C)O)noc4c3F)CC3(C(=O)NC(=O)NC3=O)[C@H]2[C@H](C)O1
2. C[C@@H]1CN2c3c(cc4c(N5C[C@H](CN=[N+]=[N-])OC5=O)noc4c3F)CC3(C(=O)NC(=O)NC3=O)[C@H]2[C@H](C)O1
3. C[C@@H]1CN2c3c(cc4c(N5CCOC5=O)noc4c3F)CC3(C(=O)NC(=O)NC3=O)[C@H]2[C@H](C)O1
4. C[C@@H]1CN2c3c(cc4c(N5C(=O)OC[C@@H]5c5ncnn5C)noc4c3F)CC3(C(=O)NC(=O)NC3=O)[C@H]2[C@H](C)O1
5. C[C@@H]1CN2c3c(cc4c(N5C[C@H](C#N)OC5=O)noc4c3F)CC3(C(=O)NC(=O)NC3=O)[C@H]2[C@H](C)O1

Result:
> 200 µM
> 200 µM
> 200 µM
> 200 µM
> 200 µM

---

Assignment: determine reported MIC for the given compounds.
- Test system: Staphylococcus aureus
- measurement.notes: Susceptibility testing (MIC) Assay 1, broth microdilution
- Assay type: cell-based
- condition.summary: Staphylococcus aureus in vivo strain, MSQS; read-out: Sau(d) MIC
Give bare numbers, in µM.

COC[C@H]1COC(=O)N1c1noc2c(F)c3c(cc12)CC1(C(=O)NC(=O)NC1=O)[C@H]1[C@H](C)O[C@H](C)CN31 (single isomer, unassigned) [Example 67]; 0.28
C[C@@H]1CN2c3c(cc4c(N5C(=O)OC[C@@H]5CN=[N+]=[N-])noc4c3F)CC3(C(=O)NC(=O)NC3=O)[C@H]2[C@H](C)O1 [Example 48]; 6.2

Lab note: each compound below needs its MIC filled in.
1. C[C@@H]1CN2c3c(cc4c(N5C(=O)OC[C@@H]5CCCO)noc4c3Cl)CC3(C(=O)NC(=O)NC3=O)[C@H]2[C@H](C)O1 [Example 33]
2. C[C@@H]1CN2c3c(cc4c(N5C(=O)OC[C@H]5C5CCOCC5)noc4c3F)CC3(C(=O)NC(=O)NC3=O)[C@H]2[C@H](C)O1 [Example 27]
3. C[C@@H]1CN2c3c(cc4c(N5C(=O)OC[C@@H]5C5CCOCC5)noc4c3F)CC3(C(=O)NC(=O)NC3=O)[C@H]2[C@H](C)O1 [Example 28]

Result:
1. 3.1
2. 0.78
3. 25

---

- measurement.notes: Plasma pharmacokinetics in S. pyogenes infected mice
- Type: in vivo
- condition.summary: mouse, nominal dose 160 mg/kg (measured 142.0), ip, with ABT
value.kind: AUC(0-inf) (µg·h/mL)
One number for each entry, in µg·h/mL.

Given item `C[C@@H]1CN2c3c(cc4c(N5C(=O)OC[C@@H]5C)noc4c3F)CC3(C(=O)NC(=O)NC3=O)[C@H]2[C@H](C)O1` , the value recorded as its AUC(0-inf) is 614
